- subject_of_test: Recombinant full-length human EP (Enteropeptidase) (Homo sapiens)
- Construct: Recombinant full-length human EP (PeproTech, Cat #450-48C); purchased PeproTech 450-48C
- procedure_details: In vitro inhibition potencies against Enteropeptidase (EP), fluorescent peptide GDDDDK-naphthylamine substrate
- Format: biochemical
- setup_conditions: compound 0.1 μM, 300 μM substrate, 1.25 nM EP
Class Condition met: inhibition at 0.1 µM at least 20%. Class Condition not met: inhibition at 0.1 µM below 20%.

N=C1NCCN1c1ccc(C(=O)Oc2ccc(CC(=O)O)n3ncnc23)cc1 = Condition not met

Dear colleague, could you confirm whether `COc1cc(C(=O)Oc2ccc(CC(=O)O)n3ncnc23)ccc1NC(=N)N` has inhibition at 0.1 µM at or above 20%?
Condition met

Param item: `Cc1cc(NC(=N)N)ccc1C(=O)Oc1ccc(CC(=O)O)n2ncnc12`
Condition not met

Param item: N=C(N)Nc1ccc(C(=O)Oc2ccc(C3OC(=O)NC3=O)n3ncnc23)cc1 (stereo not drawn)
Condition met

Param item: `C#CCOCC#Cc1cc(NC(=N)N)ccc1C(=O)Oc1ccc(CC(=O)O)n2ncnc12`
Condition met

Param item: `N=C(N)Nc1ccc(C(=O)Oc2ccc(CC(=O)NC(CCC(=O)O)(CCC(=O)O)CCC(=O)O)n3ncnc23)cc1`
Condition met

###

- subject_of_test: Recombinant full-length human EP (Enteropeptidase) (Homo sapiens, UniProt P98073)
- Construct: Recombinant full-length human EP (PeproTech, Cat #450-48C); purchased PeproTech 450-48C
- Sequence (P98073 whole entry): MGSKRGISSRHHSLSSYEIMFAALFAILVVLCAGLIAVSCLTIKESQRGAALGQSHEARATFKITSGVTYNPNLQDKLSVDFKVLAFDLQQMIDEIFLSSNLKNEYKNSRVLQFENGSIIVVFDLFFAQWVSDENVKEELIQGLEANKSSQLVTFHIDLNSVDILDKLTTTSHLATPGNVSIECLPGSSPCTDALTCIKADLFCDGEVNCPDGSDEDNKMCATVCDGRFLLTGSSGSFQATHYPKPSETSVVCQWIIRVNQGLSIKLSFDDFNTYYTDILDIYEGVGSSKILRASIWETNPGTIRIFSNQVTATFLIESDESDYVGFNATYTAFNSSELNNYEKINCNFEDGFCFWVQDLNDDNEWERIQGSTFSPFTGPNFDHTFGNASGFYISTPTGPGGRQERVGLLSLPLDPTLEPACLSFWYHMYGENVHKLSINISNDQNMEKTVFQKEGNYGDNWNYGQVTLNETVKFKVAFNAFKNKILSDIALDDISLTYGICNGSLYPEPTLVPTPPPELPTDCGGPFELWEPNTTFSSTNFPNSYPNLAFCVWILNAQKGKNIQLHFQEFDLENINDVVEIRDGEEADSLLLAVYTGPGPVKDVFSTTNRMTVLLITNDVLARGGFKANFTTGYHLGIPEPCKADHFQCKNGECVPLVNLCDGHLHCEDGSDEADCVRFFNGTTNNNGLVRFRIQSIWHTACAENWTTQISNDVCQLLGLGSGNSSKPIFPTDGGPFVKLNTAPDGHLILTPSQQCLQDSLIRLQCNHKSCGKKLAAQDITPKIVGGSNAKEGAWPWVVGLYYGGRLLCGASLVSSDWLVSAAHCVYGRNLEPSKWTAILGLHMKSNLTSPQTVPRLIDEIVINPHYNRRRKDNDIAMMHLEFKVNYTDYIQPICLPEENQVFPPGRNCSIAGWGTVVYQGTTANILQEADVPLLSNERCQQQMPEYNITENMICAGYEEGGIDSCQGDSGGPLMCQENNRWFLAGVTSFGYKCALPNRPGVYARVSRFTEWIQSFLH
- procedure_details: In vitro inhibition potencies against Enteropeptidase (EP), fluorescent peptide GDDDDK-naphthylamine substrate
- Format: biochemical
- setup_conditions: compound 0.1 μM, 300 μM substrate, 1.25 nM EP
assay_metric: inhibition at 0.1 µM (%)
# unit: % | format: bare number

Example entries begin here.
N=C(N)Nc1ccc(C(=O)Oc2ccc(CC(=O)NC(CC(=O)O)C(=O)O)n3ccnc23)cc1 (stereo not drawn) [Compound 27] = 81.2
N=C(N)Nc1ncc(C(=O)Oc2ccc(CC(=O)NC(CC(=O)O)C(=O)O)n3ncnc23)cn1 (stereo not drawn) [Compound 28] = 88.6

Proceeding to the next compound to report its inhibition at 0.1 µM.
What does the data say about its inhibition at 0.1 µM? Entry: N=C(N)Nc1ccc(C(=O)Oc2ccc(CC(=O)O)n3ncnc23)cc1I [Compound 13]
-1.5
